Assignment: determine reported kon for the given binders.
# target_system: T1, MAdCAM-IgG1 Fc fusion protein (human)
# T1 construct: Made in CHO-DHFR cells; also called MAdCAM-IgFc
# T1 sequence (chain, as listed by the source limits assumed): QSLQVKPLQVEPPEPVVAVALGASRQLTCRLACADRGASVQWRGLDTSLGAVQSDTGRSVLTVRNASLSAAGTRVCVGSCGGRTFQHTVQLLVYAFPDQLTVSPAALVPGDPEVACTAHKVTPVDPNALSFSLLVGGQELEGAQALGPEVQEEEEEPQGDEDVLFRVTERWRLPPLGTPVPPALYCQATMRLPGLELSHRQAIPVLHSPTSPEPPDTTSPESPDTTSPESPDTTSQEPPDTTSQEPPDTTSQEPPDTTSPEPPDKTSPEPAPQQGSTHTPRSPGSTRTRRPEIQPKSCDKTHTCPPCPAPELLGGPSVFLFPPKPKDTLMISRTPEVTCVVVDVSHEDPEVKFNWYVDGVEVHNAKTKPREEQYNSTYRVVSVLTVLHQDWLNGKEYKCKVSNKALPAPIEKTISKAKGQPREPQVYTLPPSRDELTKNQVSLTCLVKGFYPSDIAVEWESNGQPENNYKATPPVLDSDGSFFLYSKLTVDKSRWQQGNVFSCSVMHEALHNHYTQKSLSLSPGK
# assay_summary: SPR BIAcore protocol 2: mAb amine-coupled, MAdCAM-IgG1 Fc injected
# output: bare number, implied unit M⁻¹ s⁻¹

kon in this record for anti-MAdCAM monoclonal antibody 7.26.4 (antibody, human IgG2, kappa, V domains shown, human IgG2 kappa from hybridoma 7.26.4) VH: QVQLVQSGAEVKKPGASVKVSCEASGYTFTSYGIDWVRQAPGQGLEWMGWISVYSGNTNYAQKLQGRVTMSTDTSTSTAYMELRSLRSDDTAVYYCAREGSSSSGDYYYGMDVWGQGTTVTVSS VL: DIVMTQTPLSLSVTPGQPASISCKSNQSLLYSDGKTYLFWYLQKPGQPPQLLIYEVSNRFSGVPDRFSGSGSGTDFTLKISRVEAEDVGVYYCMQSIQLPWTFGQGTKVEIKR : 150000

kon in this record for anti-MAdCAM monoclonal antibody 6.34.2 (antibody, human IgG4, kappa, V domains shown, human IgG4 kappa from hybridoma 6.34.2) VH: QVQLVESGGGVVQPGRSLRLSCAASGFTFSSYGMHWVRQAPGKGLEWVAVISNDGNNKYYADSVKGRFTISRDNSKNTLYLQMNSLSAEDTAVYYCARDSTAITYYYYGMDVWGQGTTVTVSS VL: DIQMTQSPSSLSASVGDRVTITCRASQNISSYLNWFQQKPGKAPKLLIYAASGLKRGVPSRFSGSGSGTDFTLTIRTLQPDDFATYSCHQSYSLPFTFGPGTKVDIKR : 330000

kon in this record for anti-MAdCAM monoclonal antibody 6.22.2 (antibody, human IgG4, kappa, V domains shown, human IgG4 kappa from hybridoma 6.22.2) VH: QVQLVESGGGVVQPGRSLRLSCAASGHTFSSDGMHWVRQAPGKGLEWVAIIWYDGSNKYYADSVKGRFTISRDNSKNTLYLQMNSLRAEDTAVYYCARDPGYYYGMDVWGQGTTVTVSS VL: EIVLTQSPDFQSVTPKEKVTITCRASQRIGSSLHWYQQKPDQSPKLLIKYASQSFSGVPSRFSGSGSGTNFTLTINGLEAEDAATYYCHQSGRLPLTFGGGTKVEIKR : 230000

kon in this record for anti-MAdCAM monoclonal antibody 6.14.2 (antibody, human IgG4, kappa, V domains shown, human IgG4 kappa from hybridoma 6.14.2) VH: EVQLLESGGGLVQPGGSLRLSCAASGLTFNNSAMTWVRQAPGKGLEWVSTTSGSGGTTYYADSVKGRFTISRDSPKNTLYLQMNSLRAEDTAVYYCAARGYSYGTTPYEYWGQGTLVTVSS VL: DIQMTQSPSSLSASVGDRVTITCRASRSISSYLNWYQQKPGKAPKVLIFFVSSLQSGVPSRFSGSGSGTDFTLTISSLQPEDFATYYCQQNYIPPITFGQGTRLEIRR : 500000

kon in this record for anti-MAdCAM monoclonal antibody 9.8.2 (antibody, human IgG4, kappa, V domains shown, human IgG4 kappa from hybridoma 9.8.2) VH: QVQLVESGGGVVQPGRSLRLSCAASGFTFSSYGMHWVRQAPGKGLEWVAVIWYDGSNEYYADSVKGRFTISRDNSKNTLYLQMNSLRAEDTAVYYCARGAYHFAYWGQGTLVTVSS VL: DIQMTQSPSSLSASVGDRVTITCQASQDISNYLNWYQQKPGKAPKLLIYDASNLETGVPSRFSGSGSGTDFTFTISSLQPEDIATYSCQHSDNLSITFGQGTRLEIKR : 440000

Where do the numbers come from? From patent US20190300605A1.
